The reported numbers originate from patent US20140056903A1.

Entries and their Kd
Molecular target: T1, human GFRα3 expressed with a C-terminal myc-myc-hexahistidine tag (human, UniProt O60609 32-374, biotinylated (sites not given) in ELISA format 2 and in the Octet cross-competition; not in SPR)
T1 construct: also called hGFRα3-mmh; hGFRα3-mmH
T1 sequence (O60609 other isoform, or with tags, fused parts or gaps limits assumed): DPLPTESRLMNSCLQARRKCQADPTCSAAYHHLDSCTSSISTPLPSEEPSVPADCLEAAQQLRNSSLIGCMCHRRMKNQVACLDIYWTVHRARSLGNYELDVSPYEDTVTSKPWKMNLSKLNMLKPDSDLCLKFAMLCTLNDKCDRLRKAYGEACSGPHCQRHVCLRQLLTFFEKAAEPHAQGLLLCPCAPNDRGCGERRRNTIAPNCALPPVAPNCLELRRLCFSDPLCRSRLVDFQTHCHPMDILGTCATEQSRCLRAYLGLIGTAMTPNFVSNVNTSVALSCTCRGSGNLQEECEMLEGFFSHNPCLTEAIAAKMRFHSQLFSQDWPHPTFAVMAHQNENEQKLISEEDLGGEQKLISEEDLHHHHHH
Assay: SPR, Ab captured, 25C
Source text: […]
Give your result in pM as a bare value.

A selection of reference data follows.
H4H2364S (antibody, human IgG4, V domains shown, human IgG4 Fc (H4H)) VH: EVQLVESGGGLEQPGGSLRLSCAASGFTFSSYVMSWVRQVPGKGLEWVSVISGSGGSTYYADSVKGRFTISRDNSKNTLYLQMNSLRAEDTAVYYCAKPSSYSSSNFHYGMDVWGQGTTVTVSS VL: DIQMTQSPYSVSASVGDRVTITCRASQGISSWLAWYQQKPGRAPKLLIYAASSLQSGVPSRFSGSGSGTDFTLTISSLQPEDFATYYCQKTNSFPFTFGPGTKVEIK : 104
H2aM2210N (antibody, mouse IgG2, V domains shown, chimeric, mouse IgG2 Fc (H2M/H2aM); also called H2M2210N) VH: EVQLLESGGGLVQPGGSLRVSCAASGFTFSTSAMSWVRQAPGKGLEWVSGISGIGGGSTYYADSVKGRFTISRDNSKNTLYLQMNSLRAEDTAVYFCAKFYKWNSYIFDLWGQGTMVTVSS VL: EIVLTQSPDTLSLSPGERATLSCRASQSVSSSYFAWYQQKPGQAPRLLMYSASSRATGIPDRFSGSGSGTDFSLTISRLEPEDFAVYYCQQYGRSLTFGGGTKVEIK : 12800

// moving on: another record for Kd
The reported value for H4H2292S (antibody, human IgG4, V domains shown, human IgG4 Fc (H4H)) VH: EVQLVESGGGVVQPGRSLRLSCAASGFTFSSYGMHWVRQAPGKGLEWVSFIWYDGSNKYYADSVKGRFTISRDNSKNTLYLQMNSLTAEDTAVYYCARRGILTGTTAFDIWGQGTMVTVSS VL: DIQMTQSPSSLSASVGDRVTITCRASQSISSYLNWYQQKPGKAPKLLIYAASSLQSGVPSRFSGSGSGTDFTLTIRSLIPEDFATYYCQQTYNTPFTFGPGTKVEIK in terms of Kd is 483
